# target or test system: T1, DFNB31_3, Q9P202
# T1 sequence (Q9P202 811-907, limits assumed, looked up): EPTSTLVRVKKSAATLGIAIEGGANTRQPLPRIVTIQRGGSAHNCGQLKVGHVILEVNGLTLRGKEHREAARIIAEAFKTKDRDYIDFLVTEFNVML
# test protocol: holdup assay
# Parameters: key: below the threshold = too weak to quantify, mostly under pKd 3.1 to 4
# condition summary: plain residues with an end cap or a label only (N-terminal biotin on a linker: ado-ado)
reported property: pKd

> print(dat)
                        binder            obs.value
1  LSEFKAMDSI [CTNNA1, P35221]  below the threshold
2   SKSNFGSEPL [KIF17, Q9P2E2]  below the threshold
3    RRRESYSTTV [EVI5, O60447]  below the threshold
4  DDEDRLVIEI [ZNF831, Q5JPB2]                 4.12

// query Field request: pKd | item: EKKTLIGIKL [GOT1L1, Q8NHS2]
// result 4.02

// query Note, next up: EVEEFPETSV [TRPV3, Q8NET8]
// result below the threshold

// query Note, next up: SKENVQETQI [LRRC4B, Q9NT99]
// result 3.47

// query Note, next up: VDSTVKVWTC [TRAF7, Q6Q0C0]
// result below the threshold

Provenance of the data: paper PMC9482650
